- Tested on: Z138 mantle cell lymphoma tumour cell lines
- TEST_SUMMARY: In vitro cytotoxicity, MTT assay
- Type: cell-based
- MEASUREMENT_PARAMETERS: Z138 cells exposed to the test compounds for 96 hours; cell viability vs DMSO treated cells
IC50 for assorted compounds
A number alone suffices; assume µM.

// solved cases for IC50 follow
[[record]]
compound = "Nc1c(Oc2ccc(F)c(O)c2)ncn(C[C@@]2(O)CCN(C(=O)[C@@H]3CCC(F)(F)C[C@H]3c3ccccc3)CC2(F)F)c1=O"
unit_string = "µM"
test_result = 0.0155

[[record]]
compound = "CC(N)c1ccc(Oc2ncn(CC3(O)CCN(C(=O)[C@@H]4CCC(F)(F)C[C@H]4c4ccccc4)CC3)c(=O)c2N)cc1 (single isomer, unassigned; diastereoisomer 2)"
unit_string = "µM"
test_result = 0.264

[[record]]
compound = "CO[C@]1(C#Cc2cccnn2)CC[C@@H](C(=O)N2CCC(O)(Cn3cnc(Oc4ccc(F)cc4)c(N)c3=O)CC2)[C@H](c2ccccc2)C1"
unit_string = "µM"
test_result = 0.00597


Turning now to a further record.
Report IC50, nothing else, for this compound: "Nc1cccc(C#C[C@@]2(F)CC[C@@H](C(=O)N3CCC(O)(Cn4cnc(Oc5ccc(F)cc5)c(N)c4=O)CC3)[C@H](c3ccccc3)C2)n1"
0.0126

###

IC50 for assorted molecules
- ASSAYED_TARGET: His-His-USP7 (aa208-560, |C315A|) (Homo sapiens, UniProt Q93009, C315A)
- Construct: His-His-USP7 (aa208-560, |C315A|); His-His (N)
- Sequence (Q93009 208-560 C315A): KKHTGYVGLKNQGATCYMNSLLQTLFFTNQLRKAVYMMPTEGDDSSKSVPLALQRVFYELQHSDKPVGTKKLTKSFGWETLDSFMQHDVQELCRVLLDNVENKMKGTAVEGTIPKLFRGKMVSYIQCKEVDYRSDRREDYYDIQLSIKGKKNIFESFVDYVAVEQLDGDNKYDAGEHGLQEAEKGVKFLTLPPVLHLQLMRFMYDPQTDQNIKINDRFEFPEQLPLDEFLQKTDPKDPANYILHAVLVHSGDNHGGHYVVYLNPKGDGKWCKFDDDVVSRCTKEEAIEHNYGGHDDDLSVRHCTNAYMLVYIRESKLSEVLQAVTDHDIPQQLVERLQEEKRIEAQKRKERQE
- TEST_SUMMARY: Evaluation of the inhibition of USP7 by the Fluorescence Intensity (FLINT) readings
- Assay type: biochemical
- MEASUREMENT_PARAMETERS: 0.25 nM His-His-USP7, compound incubated 60 minutes at 30° C., 500 nM Ubiquitin-Rhodamine-110 substrate; 50% reduction in kinetic rate
Answer with the value and then the unit.

[[record]]
molecule = "COc1cc(OC)cc(Oc2ncn(CC3(O)CCN(C(=O)[C@@H]4CCC(F)(F)C[C@H]4c4ccccc4)CC3)c(=O)c2N)c1 [Example 7]"
recorded_metric = "IC50"
test_result = "181 nM"


Report IC50, nothing else, for this molecule: Nc1c(Oc2ccc(C3CCCCN3)cc2)ncn(CC2(O)CCN(C(=O)[C@@H]3CCC(F)(F)C[C@H]3c3ccccc3)CC2)c1=O (stereo partly drawn) [Example 121]
3.08 nM

Report IC50, nothing else, for this molecule: Nc1c(Oc2ccc(F)cc2)ncn(CC2(O)CCN(C(=O)[C@@H]3CCC(F)(C#CC4CC4)C[C@H]3c3ccccc3)CC2)c1=O (relative stereo) [Example 124]
89.6 nM

Report IC50, nothing else, for this molecule: NCc1ccc(Oc2ncn(CC3(O)CCN(C(=O)[C@@H]4CCC(F)(F)C[C@H]4c4ccccc4)CC3)c(=O)c2N)cc1F [Example 65]
10 nM

Report IC50, nothing else, for this molecule: Nc1c(Oc2ccccc2)ncn(CC2(O)CCN(C(=O)[C@@H]3CC(F)(F)CC[C@H]3c3ccccc3)CC2)c1=O [Example 82]
90.3 nM

Report IC50, nothing else, for this molecule: COc1cc(Oc2ncn(CC3(O)CCN(C(=O)[C@@H]4CCC(F)(F)C[C@H]4c4ccccc4)CC3)c(=O)c2N)ccc1F [Example 16]
51.6 nM
